target: h-jak3(810-1124) (JAK3: Recombinant human kinase domain) (Homo sapiens); construct: jak3(810- 1124)-sf9-c; assay: Determination of IC50 of Janus Kinase (JAK) inhibition: JAK3 radioactive end-point 33P-ATP kinase assay; conditions: no additive; ATP 1.5 uM, peptide 50 uM, 20 minutes, room temperature; read-out: Ic50 h-jak3(810-1124)-sf9-c: no additive
Sequence (P52333 810-1124): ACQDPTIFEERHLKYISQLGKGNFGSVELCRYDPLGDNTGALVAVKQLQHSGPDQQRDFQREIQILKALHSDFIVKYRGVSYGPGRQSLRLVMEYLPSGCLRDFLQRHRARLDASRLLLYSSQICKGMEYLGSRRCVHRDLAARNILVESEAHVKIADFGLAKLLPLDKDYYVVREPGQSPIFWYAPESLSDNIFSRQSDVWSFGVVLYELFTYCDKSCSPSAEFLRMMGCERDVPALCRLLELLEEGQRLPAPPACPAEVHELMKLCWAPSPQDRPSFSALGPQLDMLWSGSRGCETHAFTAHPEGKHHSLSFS
# key: entry, value: pIC50
// field semantics: pIC50 = negative decimal log of concentration (mol/L)

Record excerpt, results attached:
>>> endpoint_value("CC(C)(C)[C@@H](NC(=O)c1c[nH]c2ncc(C3CC3)nc12)C(=O)N1CCc2ccccc21")
7.72
>>> endpoint_value("CC(C)Oc1cnc2[nH]cc(C(=O)N[C@@H](C(=O)N3CCC(C#N)CC3)C(C)(C)C)c2n1")
8.44
>>> endpoint_value("N#CC1CCN(C(=O)[C@@H](NC(=O)c2c[nH]c3ncc(C4CC4)nc23)C2(C(F)(F)F)CC2)CC1")
8.37
>>> endpoint_value("CCn1cc(-c2cnc3[nH]cc(C(=O)N[C@@H](C(=O)N4CCC(C#N)CC4)C(C)(C)C)c3n2)cn1")
9.11
>>> endpoint_value("CCn1cc(-c2cnc3[nH]cc(C(=O)N[C@H](C(=O)N4CCC(C#N)CC4)C4(C(F)(F)F)CC4)c3n2)cn1")
8.95

Here's the next entry for you.
Query string: GET /values?readout=pIC50&system=h-jak3(810-1124) (JAK3: Recombinant human kinase domain) (Homo sapiens)&item= Cc1nc(-c2cnc3[nH]cc(C(=O)N[C@@H](C(=O)N4CC(C#N)C4)C(C)(C)C)c3n2)cn1-c1cc(F)cc(F)c1
Result string: 8.48
